Source: patent US11279726B2

Assignment: determine reported CMC (wt %) for the given molecules.
ASSAY NOTES: Critical micelle concentration by fluorescent staining with diphenylhexatriene (DPH)
Format: physicochemical
CONDITION SET: aqueous solution

{"MOLECULE": "CCCCCCCCCCCCO[C@@H]1O[C@H](CO)[C@@H](O[C@H]2O[C@H](CO)[C@@H](O)[C@H](O)[C@H]2O)[C@H](O)[C@H]1O [DDM, n-dodecyl-β-D-maltopyranoside, reference compound]", "CMC (wt %)": "~0.0087 wt %"}

Let us move to another entry and its CMC (wt %).
Entry under review: CCCCCCCCCCOCC1C2CC([C@@H]1COCCCCCCCCCC)[C@H](O[C@@H]1OC(CO)[C@@H](O[C@H]3OC(CO)[C@@H](O)C(O)C3O)C(O)C1O)C2O[C@@H]1OC(CO)[C@@H](O[C@H]2OC(CO)[C@@H](O)C(O)C2O)C(O)C1O (stereo partly drawn) [D-NBM-C10] . Reported CMC (wt %)?
~0.0009 wt %

###

ASSAY NOTES: Hydrodynamic radius / size distribution of micelles by dynamic light scattering (DLS)
Format: physicochemical
CONDITION SET: 1.0 wt % agent
MEASUREMENT TYPE: Rh (nm), hydrodynamic radius of micelles
Your reply should be a number followed by the unit it is expressed in.

{"MOLECULE": "CCCCCCCCCCCOCC1C2CC([C@@H]1COCCCCCCCCCCC)[C@H](O[C@@H]1OC(CO)[C@@H](O[C@H]3OC(CO)[C@@H](O)C(O)C3O)C(O)C1O)C2O[C@@H]1OC(CO)[C@@H](O[C@H]2OC(CO)[C@@H](O)C(O)C2O)C(O)C1O (some centres unmarked)", "Rh (nm), hydrodynamic radius of micelles": "3.7 ± 0.05 nm"}

Entry under review: CCCCCCCCCCCOCC1C2CC([C@H]1COCCCCCCCCCCC)[C@H](O[C@@H]1OC(CO)[C@@H](O[C@H]3OC(CO)[C@@H](O)C(O)C3O)C(O)C1O)C2O[C@@H]1OC(CO)[C@@H](O[C@H]2OC(CO)[C@@H](O)C(O)C2O)C(O)C1O (some centres unmarked) . Reported Rh (nm), hydrodynamic radius of micelles?
17.3 ± 0.10 nm

###

ASSAY NOTES: Critical micelle concentration by fluorescent staining with diphenylhexatriene (DPH)
Assay type: physicochemical
CONDITION SET: aqueous solution
MEASUREMENT TYPE: CMC

{"COMPOUND": "CCCCCCCCCCCCO[C@@H]1O[C@H](CO)[C@@H](O[C@H]2O[C@H](CO)[C@@H](O)[C@H](O)[C@H]2O)[C@H](O)[C@H]1O [DDM, n-dodecyl-β-D-maltopyranoside, reference compound]", "ASSAY VALUE": "~0.17 mM"}
{"COMPOUND": "CCCCCCCCCCOCC1C2CC([C@H]1COCCCCCCCCCC)[C@H](O[C@@H]1OC(CO)[C@@H](O[C@H]3OC(CO)[C@@H](O)C(O)C3O)C(O)C1O)C2O[C@@H]1OC(CO)[C@@H](O[C@H]2OC(CO)[C@@H](O)C(O)C2O)C(O)C1O (stereo partly shown)", "ASSAY VALUE": "~0.007 mM"}
{"COMPOUND": "CCCCCCCCCOCC1C2CC([C@H]1COCCCCCCCCC)[C@H](O[C@@H]1OC(CO)[C@@H](O[C@H]3OC(CO)[C@@H](O)C(O)C3O)C(O)C1O)C2O[C@@H]1OC(CO)[C@@H](O[C@H]2OC(CO)[C@@H](O)C(O)C2O)C(O)C1O (stereo partly shown)", "ASSAY VALUE": "~0.010 mM"}
{"COMPOUND": "CCCCCCCCCCCOCC1C2CC([C@H]1COCCCCCCCCCCC)[C@H](O[C@@H]1OC(CO)[C@@H](O[C@H]3OC(CO)[C@@H](O)C(O)C3O)C(O)C1O)C2O[C@@H]1OC(CO)[C@@H](O[C@H]2OC(CO)[C@@H](O)C(O)C2O)C(O)C1O (stereo partly shown)", "ASSAY VALUE": "~0.006 mM"}
{"COMPOUND": "CCCCCCCCCCCOCC1C2CC([C@@H]1COCCCCCCCCCCC)[C@H](O[C@@H]1OC(CO)[C@@H](O[C@H]3OC(CO)[C@@H](O)C(O)C3O)C(O)C1O)C2O[C@@H]1OC(CO)[C@@H](O[C@H]2OC(CO)[C@@H](O)C(O)C2O)C(O)C1O (stereo partly shown)", "ASSAY VALUE": "~0.007 mM"}
{"COMPOUND": "CCCCCCCCCOCC1C2CC([C@@H]1COCCCCCCCCC)[C@H](O[C@@H]1OC(CO)[C@@H](O[C@H]3OC(CO)[C@@H](O)C(O)C3O)C(O)C1O)C2O[C@@H]1OC(CO)[C@@H](O[C@H]2OC(CO)[C@@H](O)C(O)C2O)C(O)C1O (stereo partly shown)", "ASSAY VALUE": "~0.012 mM"}

Let us move to another entry and its CMC.
Entry under review: CCCCCCCCCCOCC1C2CC([C@@H]1COCCCCCCCCCC)[C@H](O[C@@H]1OC(CO)[C@@H](O[C@H]3OC(CO)[C@@H](O)C(O)C3O)C(O)C1O)C2O[C@@H]1OC(CO)[C@@H](O[C@H]2OC(CO)[C@@H](O)C(O)C2O)C(O)C1O (stereo partly shown) . Reported CMC?
~0.008 mM

###

Assignment: determine reported CMC (wt %) for the given compounds.
ASSAY NOTES: Critical micelle concentration by fluorescent staining with diphenylhexatriene (DPH)
Assay type: physicochemical
CONDITION SET: aqueous solution

Solved entries (count: 4):
{"COMPOUND": "CCCCCCCCCCCOCC1C2CC([C@@H]1COCCCCCCCCCCC)[C@H](O[C@@H]1OC(CO)[C@@H](O[C@H]3OC(CO)[C@@H](O)C(O)C3O)C(O)C1O)C2O[C@@H]1OC(CO)[C@@H](O[C@H]2OC(CO)[C@@H](O)C(O)C2O)C(O)C1O (some centres unmarked)", "CMC (wt %)": "~0.0008 wt %"}
{"COMPOUND": "CCCCCCCCCOCC1C2CC([C@H]1COCCCCCCCCC)[C@H](O[C@@H]1OC(CO)[C@@H](O[C@H]3OC(CO)[C@@H](O)C(O)C3O)C(O)C1O)C2O[C@@H]1OC(CO)[C@@H](O[C@H]2OC(CO)[C@@H](O)C(O)C2O)C(O)C1O (some centres unmarked)", "CMC (wt %)": "~0.0011 wt %"}
{"COMPOUND": "CCCCCCCCCCOCC1C2CC([C@H]1COCCCCCCCCCC)[C@H](O[C@@H]1OC(CO)[C@@H](O[C@H]3OC(CO)[C@@H](O)C(O)C3O)C(O)C1O)C2O[C@@H]1OC(CO)[C@@H](O[C@H]2OC(CO)[C@@H](O)C(O)C2O)C(O)C1O (some centres unmarked)", "CMC (wt %)": "~0.0008 wt %"}
{"COMPOUND": "CCCCCCCCCOCC1C2CC([C@@H]1COCCCCCCCCC)[C@H](O[C@@H]1OC(CO)[C@@H](O[C@H]3OC(CO)[C@@H](O)C(O)C3O)C(O)C1O)C2O[C@@H]1OC(CO)[C@@H](O[C@H]2OC(CO)[C@@H](O)C(O)C2O)C(O)C1O (some centres unmarked)", "CMC (wt %)": "~0.0013 wt %"}

Let us move to another entry and its CMC (wt %).
Entry under review: CCCCCCCCCCCOCC1C2CC([C@H]1COCCCCCCCCCCC)[C@H](O[C@@H]1OC(CO)[C@@H](O[C@H]3OC(CO)[C@@H](O)C(O)C3O)C(O)C1O)C2O[C@@H]1OC(CO)[C@@H](O[C@H]2OC(CO)[C@@H](O)C(O)C2O)C(O)C1O (some centres unmarked) . Reported CMC (wt %)?
~0.0007 wt %

###

ASSAY NOTES: Hydrodynamic radius / size distribution of micelles by dynamic light scattering (DLS)
Assay type: physicochemical
CONDITION SET: 1.0 wt % agent
Assignment: determine reported Rh (nm), hydrodynamic radius of micelles for the given compounds.

{"COMPOUND": "CCCCCCCCCCCCO[C@@H]1O[C@H](CO)[C@@H](O[C@H]2O[C@H](CO)[C@@H](O)[C@H](O)[C@H]2O)[C@H](O)[C@H]1O [DDM, n-dodecyl-β-D-maltopyranoside, reference compound]", "Rh (nm), hydrodynamic radius of micelles": "3.4 ± 0.03 nm"}

Batch of 4 compounds: report Rh (nm), hydrodynamic radius of micelles for each.
1. CCCCCCCCCOCC1C2CC([C@H]1COCCCCCCCCC)[C@H](O[C@@H]1OC(CO)[C@@H](O[C@H]3OC(CO)[C@@H](O)C(O)C3O)C(O)C1O)C2O[C@@H]1OC(CO)[C@@H](O[C@H]2OC(CO)[C@@H](O)C(O)C2O)C(O)C1O (some centres unmarked)
2. CCCCCCCCCOCC1C2CC([C@@H]1COCCCCCCCCC)[C@H](O[C@@H]1OC(CO)[C@@H](O[C@H]3OC(CO)[C@@H](O)C(O)C3O)C(O)C1O)C2O[C@@H]1OC(CO)[C@@H](O[C@H]2OC(CO)[C@@H](O)C(O)C2O)C(O)C1O (some centres unmarked)
3. CCCCCCCCCCOCC1C2CC([C@H]1COCCCCCCCCCC)[C@H](O[C@@H]1OC(CO)[C@@H](O[C@H]3OC(CO)[C@@H](O)C(O)C3O)C(O)C1O)C2O[C@@H]1OC(CO)[C@@H](O[C@H]2OC(CO)[C@@H](O)C(O)C2O)C(O)C1O (some centres unmarked)
4. CCCCCCCCCCOCC1C2CC([C@@H]1COCCCCCCCCCC)[C@H](O[C@@H]1OC(CO)[C@@H](O[C@H]3OC(CO)[C@@H](O)C(O)C3O)C(O)C1O)C2O[C@@H]1OC(CO)[C@@H](O[C@H]2OC(CO)[C@@H](O)C(O)C2O)C(O)C1O (some centres unmarked)

3.7 ± 0.03 nm
3.3 ± 0.04 nm
4.0 ± 0.02 nm
3.5 ± 0.03 nm
